method notes: Maximum additive concentration (MAC) and degree of synergistic solubilisation in aqueous P407+P188 mixtures
Format: physicochemical
reported conditions: 7% w/v P407 + 3% w/v P188 in water
measured parameter: synergistic ratio, MACexperimental/MACadmixture

[[record]]
compound = "CCCCCCCCCC(=O)OCCN1CCN(CCCN2c3ccccc3Sc3ccc(C(F)(F)F)cc32)CC1 [Fluphenazine decanoate]"
val = 1.6

[[record]]
compound = "CCN(CC)CC(=O)Nc1c(C)cccc1C [Lidocaine, 2-diethylamino-2′,6′-acetoxylidide]"
val = 1.4

[[record]]
compound = "CCCCCCC(=O)OCCN1CCN(CCCN2c3ccccc3Sc3ccc(C(F)(F)F)cc32)CC1 [Fluphenazine enanthate]"
val = 1.8

[[record]]
compound = "Cc1ccc(C(C)C)cc1O"
val = 1.8


* * *

method notes: Maximum additive concentration (MAC) and degree of synergistic solubilisation in aqueous P407+P188 mixtures
Type: physicochemical
reported conditions: 3% w/v P407 + 7% w/v P188 in water
measured parameter: synergistic ratio, MACexperimental/MACadmixture

[[record]]
molecule = "Cc1ccc(C(C)C)cc1O"
val = 2.1

[[record]]
molecule = "CCN(CC)CC(=O)Nc1c(C)cccc1C [Lidocaine, 2-diethylamino-2′,6′-acetoxylidide]"
val = 1.5

[[record]]
molecule = "CCCCCCC(=O)OCCN1CCN(CCCN2c3ccccc3Sc3ccc(C(F)(F)F)cc32)CC1 [Fluphenazine enanthate]"
val = 2.5

[[record]]
molecule = "CCCCCCCCCC(=O)OCCN1CCN(CCCN2c3ccccc3Sc3ccc(C(F)(F)F)cc32)CC1 [Fluphenazine decanoate]"
val = 3.6

